// inhibition at 15 µM lookup, one value per entry
target: HLA-A0201 (Homo sapiens, UniProt P04439, D140Y/D185E/D98H/E176V/E277Q/G131W/G231S/I119V/I121R/I166T/I218V/L300P/L318F/N151K/N90K/P208A/P217A/Q86G/Q94H/R138H/R169H/T345S); construct: expressed in transfected cells; host or cells: HMy2.CIR; experiment: cell-based; assay type: binding; conditions: HLA-A0201 HMy2.CIR cells; competitor peptide 15μM; 24 hours; flow cytometry; read-out: 15μM Inhibition (%)
Residues, ends and D or L forms follow the SMILES beside them.
Write it as a number; the unit % goes unstated.

COMPOUND | inhibition at 15 µM, %
CC[C@H](C)[C@H](NC(=O)[C@H](CC(C)C)NC(=O)[C@H](CS)NC(=O)[C@H](CC(C)C)NC(=O)[C@H](Cc1c[nH]cn1)NC(=O)[C@H](Cc1ccccc1)NC(=O)[C@H](CC(C)C)NC(=O)[C@H](CCC(N)=O)NC(=O)[C@@H](N)CCSC)C(=O)O [Epitope P66] (H-MQLFHLCLI-OH; N-terminus and C-terminus assumed) | 83.5

# input for lookup
Query inhibition at 15 µM for CC[C@H](C)[C@H](NC(=O)CNC(=O)[C@H](CC(C)C)NC(=O)[C@H](CO)NC(=O)[C@H](CC(C)C)NC(=O)[C@H](CC(C)C)NC(=O)[C@@H](N)Cc1ccccc1)C(=O)N[C@@H](Cc1c[nH]cn1)C(=O)N[C@@H](CC(C)C)C(=O)O [Epitope P10]
71.6
